- System: R275C/beta4
- Experiment: modulators of BK channel variants, profiling panel, selectivity assay, cell-based, U2OS BacMam, thallium flux, beta subunits (AID 1259406);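 note: initial slope of Thallos dye fluorescence rise after thallium is added; log ratio against the mean of 0.3% DMSO vehicle wells on the same plate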
- Study Conditions: at 30 µM
The source made the active and inactive calls.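 Rule for the calls: active = thallium flux through the channel raised or lowered by more than 3 SD from vehicle-only wells, actives on both sides; inactive = the rest.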
Please reply with one of these outcomes: active, inactive

See these solved cases before continuing.
Compound: CC[C@@H](C(N)=O)N1CCCC1=O
Tested On: R275C/beta4
Assigned Category: inactive

Compound: COc1ccc(C(CN(C)C)C2(O)CCCCC2)cc1 (centres undefined)
Tested On: R275C/beta4
Assigned Category: inactive

Compound: Cc1ccc(S(=O)(=O)N2CN3CCN(C3)C2)cc1
Tested On: R275C/beta4
Assigned Category: inactive

What classification did "Oc1cc2c(cc1O)[C@H]1c3ccccc3CN[C@@H]1CC2" end up with in this test?
inactive

What classification did "O=C1CC[C@@]2(O)[C@H]3Cc4ccc(O)c5c4[C@@]2(CCN3CC2CC2)[C@H]1O5" end up with in this test?
inactive

###

- Test system: Aerobactin synthetase IucA (Klebsiella pneumoniae, hypervirulent)
- Experiment: IucA enzyme inhibition, biochemical, LOPAC library, absorbance readout (AID 1346212);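 note: 100% = no compound wells and 0% = no enzyme wells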
- Study Conditions: IucA enzyme assay, absorbance (OD) readout; stronger effect = lower value; concentration not given here
remaining activity by entry:
Provide the reading as a plain figure in %.

Compound: NNCCc1ccccc1
Value Measured: 93.4
--
Compound: Nc1ncnc2c1nc(Br)n2C1OC2COP(=O)(O)O[C@@H]2C1O (stereo not given in full)
Value Measured: 113
--
Compound: Nc1nc2[nH]c(=O)cnc2c(=O)[nH]1
Value Measured: 89
--
Compound: CN(C)CCCN1c2ccccc2Sc2ccccc21
Value Measured: 95
--
Compound: COc1ccc2c(c1OC)C(=O)O[C@@H]2[C@H]1c2c(cc3c(c2OC)OCO3)CCN1C
Value Measured: 112

Look up and report measured remaining activity for this entry: "COc1ccc2cc([C@H](C)C(=O)O)ccc2c1"
91.4

Look up and report measured remaining activity for this entry: "Nc1nc(N)c2nc(CNc3ccc(C(=O)N[C@@H](CCC(=O)O)C(=O)O)cc3)cnc2n1"
112

Look up and report measured remaining activity for this entry: "CC[N+](CC)(CC)CC"
93.6

Look up and report measured remaining activity for this entry: "Fc1ccc([C@@H]2CCNC[C@H]2COc2ccc3c(c2)OCO3)cc1"
121

Look up and report measured remaining activity for this entry: "Nn1nnc2ccccc21"
115

Look up and report measured remaining activity for this entry: Cc1cccc(C)c1OCC(C)N (stereo not given)
113

Look up and report measured remaining activity for this entry: "CCn1cc(C(=O)O)c(=O)c2ccc(C)nc21"
122

Look up and report measured remaining activity for this entry: "Cc1nc2ccccn2c(=O)c1CCN1CCC(C(=O)c2ccc(F)cc2)CC1"
101

Look up and report measured remaining activity for this entry: "N#C/C(=C\c1ccc(O)c(O)c1)C(=O)c1ccc(O)c(O)c1"
79.7

Look up and report measured remaining activity for this entry: "O=C1NCN(c2ccccc2)C12CCN(CCCC(c1ccc(F)cc1)c1ccc(F)cc1)CC2"
104

Look up and report measured remaining activity for this entry: CCCCCCCCCCCCCCCCCC(=O)NCC(COP(=O)([O-])OCC[N+](C)(C)C)OCC (stereo not given)
97.5

Look up and report measured remaining activity for this entry: CCCCCCCCCCCCCCCC(=O)OC(CC(=O)O)C[N+](C)(C)C (stereo not given)
116

Look up and report measured remaining activity for this entry: "CCn1cc(C(=O)O)c(=O)c2cc3c(cc21)OCO3"
95.5

Look up and report measured remaining activity for this entry: "Cc1c2ccncc2c(C)c2c1[nH]c1ccccc12"
81.7

Look up and report measured remaining activity for this entry: "CCN(CC)CCOCCOC(=O)C1(c2ccccc2)CCCC1"
113

Look up and report measured remaining activity for this entry: "N=C(N)SCCc1cnc[nH]1"
122

Look up and report measured remaining activity for this entry: "Cc1cc(O)c2c(c1)C(=O)c1cc(O)cc(O)c1C2=O"
76.7

Look up and report measured remaining activity for this entry: "CN1CCN(CC/C=C2/c3ccccc3Sc3ccc(S(=O)(=O)N(C)C)cc32)CC1"
99.4

Look up and report measured remaining activity for this entry: "Cc1nc2c([nH]1)c(=O)n(C)c(=O)n2Cc1ccco1"
99.1

Look up and report measured remaining activity for this entry: "CCCN(CC1CC1)c1nc(C)nc(Nc2c(Cl)cc(Cl)cc2Cl)c1Cl"
102
